- test-system: UniProt P48736
- Sequence (P48736 whole entry, looked up): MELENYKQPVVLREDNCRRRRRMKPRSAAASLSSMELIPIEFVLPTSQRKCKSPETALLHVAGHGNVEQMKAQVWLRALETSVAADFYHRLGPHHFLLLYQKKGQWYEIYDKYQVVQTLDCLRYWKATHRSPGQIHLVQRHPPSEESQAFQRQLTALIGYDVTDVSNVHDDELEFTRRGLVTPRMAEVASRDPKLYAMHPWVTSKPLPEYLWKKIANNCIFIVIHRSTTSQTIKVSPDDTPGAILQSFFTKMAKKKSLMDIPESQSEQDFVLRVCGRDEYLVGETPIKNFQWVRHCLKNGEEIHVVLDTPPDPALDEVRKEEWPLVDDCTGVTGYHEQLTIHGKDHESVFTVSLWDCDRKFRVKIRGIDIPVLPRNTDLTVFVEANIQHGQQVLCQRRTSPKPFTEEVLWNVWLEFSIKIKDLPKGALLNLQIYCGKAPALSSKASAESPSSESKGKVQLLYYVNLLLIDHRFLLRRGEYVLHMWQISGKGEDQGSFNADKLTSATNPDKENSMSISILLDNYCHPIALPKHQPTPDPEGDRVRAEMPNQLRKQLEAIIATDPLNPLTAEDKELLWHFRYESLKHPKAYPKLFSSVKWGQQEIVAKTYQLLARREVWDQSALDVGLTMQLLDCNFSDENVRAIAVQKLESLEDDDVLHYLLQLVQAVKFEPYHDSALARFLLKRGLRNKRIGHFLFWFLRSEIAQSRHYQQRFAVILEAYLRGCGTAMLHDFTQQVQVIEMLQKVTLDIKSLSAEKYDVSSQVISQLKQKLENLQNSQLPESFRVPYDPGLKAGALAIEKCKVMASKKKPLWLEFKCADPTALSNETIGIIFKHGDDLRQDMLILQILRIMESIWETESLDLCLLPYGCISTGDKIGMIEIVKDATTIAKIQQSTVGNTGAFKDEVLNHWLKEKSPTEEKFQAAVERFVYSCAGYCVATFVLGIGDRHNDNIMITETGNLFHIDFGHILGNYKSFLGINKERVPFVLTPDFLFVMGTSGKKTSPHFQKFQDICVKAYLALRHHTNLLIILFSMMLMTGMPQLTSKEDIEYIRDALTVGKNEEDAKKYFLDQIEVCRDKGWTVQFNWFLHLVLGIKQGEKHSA
- measurement-protocol: KINOMEscan competition binding
test-readout: Kd (µM)

>>> print(df.to_string())
                      smiles_representation  meas_value
0  COc1cc2ncnc(Oc3cccc(NC(=O)Nc4cc(C(C)(C)C(F)(F)F)on4)c3)c2cc1OC          30

###

- test-system: FGR (human)
test-readout: Kd (nM)

>>> print(df.to_string())
                      smiles_representation  test_system  test_readout  meas_value
0  COc1cc2ncnc(Oc3cccc(NC(=O)Nc4cc(C(C)(C)C(F)(F)F)on4)c3)c2cc1OC  FGR (human)            Kd         110

###

- test-system: CLK2 (human)
- measurement-protocol: KINOMEscan competition binding
test-readout: Kd

>>> print(df.to_string())
                      smiles_representation  test_readout  meas_value
0  COc1cc2ncnc(Oc3cccc(NC(=O)Nc4cc(C(C)(C)C(F)(F)F)on4)c3)c2cc1OC            Kd       21 µM

###

- test-system: FLT3 (human), P36888 [K663Q]
- measurement-protocol: KINOMEscan competition binding
pKd: −log10 of the molar value.
test-readout: pKd

>>> print(df.to_string())
                      smiles_representation  meas_value
0  COc1cc2ncnc(Oc3cccc(NC(=O)Nc4cc(C(C)(C)C(F)(F)F)on4)c3)c2cc1OC        8.38

###

- test-system: ABL1 (human), P00519 [H396P]
- measurement-protocol: KINOMEscan competition binding
test-readout: Kd

                      smiles_representation                   test_system  meas_value
0  COc1cc2ncnc(Oc3cccc(NC(=O)Nc4cc(C(C)(C)C(F)(F)F)on4)c3)c2cc1OC  ABL1 (human), P00519 [H396P]       11 nM

###

- test-system: EPHA7 (human) (UniProt Q15375)
- Sequence (Q15375 whole entry, looked up): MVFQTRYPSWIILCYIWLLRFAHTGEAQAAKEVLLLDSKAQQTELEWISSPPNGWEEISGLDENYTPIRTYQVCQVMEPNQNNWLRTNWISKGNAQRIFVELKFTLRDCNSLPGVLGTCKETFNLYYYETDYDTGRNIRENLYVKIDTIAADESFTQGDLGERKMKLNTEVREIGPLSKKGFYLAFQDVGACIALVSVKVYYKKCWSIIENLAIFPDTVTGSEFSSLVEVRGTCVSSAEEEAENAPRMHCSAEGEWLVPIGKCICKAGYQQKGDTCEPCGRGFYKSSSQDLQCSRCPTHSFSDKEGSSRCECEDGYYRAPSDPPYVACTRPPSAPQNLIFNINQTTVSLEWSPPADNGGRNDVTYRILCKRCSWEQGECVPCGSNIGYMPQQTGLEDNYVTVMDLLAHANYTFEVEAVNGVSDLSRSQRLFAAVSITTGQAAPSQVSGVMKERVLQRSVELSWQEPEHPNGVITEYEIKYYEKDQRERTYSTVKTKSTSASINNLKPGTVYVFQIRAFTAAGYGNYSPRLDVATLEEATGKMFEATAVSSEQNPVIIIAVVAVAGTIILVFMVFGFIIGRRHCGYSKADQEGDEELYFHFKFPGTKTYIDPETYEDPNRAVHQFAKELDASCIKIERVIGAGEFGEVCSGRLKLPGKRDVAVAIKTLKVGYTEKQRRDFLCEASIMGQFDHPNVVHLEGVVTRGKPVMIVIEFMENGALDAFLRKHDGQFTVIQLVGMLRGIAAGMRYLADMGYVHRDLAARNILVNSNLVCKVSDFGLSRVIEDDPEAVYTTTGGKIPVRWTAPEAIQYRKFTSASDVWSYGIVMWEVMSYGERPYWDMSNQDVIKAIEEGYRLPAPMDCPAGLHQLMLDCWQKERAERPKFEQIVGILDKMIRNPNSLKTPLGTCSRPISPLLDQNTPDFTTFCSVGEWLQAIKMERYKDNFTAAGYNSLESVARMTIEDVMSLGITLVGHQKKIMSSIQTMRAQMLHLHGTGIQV
pKd: −log10 of the molar value.
test-readout: pKd

>>> print(df.to_string())
                      smiles_representation                     test_system  meas_value
0  COc1cc2ncnc(Oc3cccc(NC(=O)Nc4cc(C(C)(C)C(F)(F)F)on4)c3)c2cc1OC  EPHA7 (human) (UniProt Q15375)        7.15

###

- test-system: PIK3CA (human), P42336 [E545K]
- Sequence (P42336 whole entry E545K, looked up): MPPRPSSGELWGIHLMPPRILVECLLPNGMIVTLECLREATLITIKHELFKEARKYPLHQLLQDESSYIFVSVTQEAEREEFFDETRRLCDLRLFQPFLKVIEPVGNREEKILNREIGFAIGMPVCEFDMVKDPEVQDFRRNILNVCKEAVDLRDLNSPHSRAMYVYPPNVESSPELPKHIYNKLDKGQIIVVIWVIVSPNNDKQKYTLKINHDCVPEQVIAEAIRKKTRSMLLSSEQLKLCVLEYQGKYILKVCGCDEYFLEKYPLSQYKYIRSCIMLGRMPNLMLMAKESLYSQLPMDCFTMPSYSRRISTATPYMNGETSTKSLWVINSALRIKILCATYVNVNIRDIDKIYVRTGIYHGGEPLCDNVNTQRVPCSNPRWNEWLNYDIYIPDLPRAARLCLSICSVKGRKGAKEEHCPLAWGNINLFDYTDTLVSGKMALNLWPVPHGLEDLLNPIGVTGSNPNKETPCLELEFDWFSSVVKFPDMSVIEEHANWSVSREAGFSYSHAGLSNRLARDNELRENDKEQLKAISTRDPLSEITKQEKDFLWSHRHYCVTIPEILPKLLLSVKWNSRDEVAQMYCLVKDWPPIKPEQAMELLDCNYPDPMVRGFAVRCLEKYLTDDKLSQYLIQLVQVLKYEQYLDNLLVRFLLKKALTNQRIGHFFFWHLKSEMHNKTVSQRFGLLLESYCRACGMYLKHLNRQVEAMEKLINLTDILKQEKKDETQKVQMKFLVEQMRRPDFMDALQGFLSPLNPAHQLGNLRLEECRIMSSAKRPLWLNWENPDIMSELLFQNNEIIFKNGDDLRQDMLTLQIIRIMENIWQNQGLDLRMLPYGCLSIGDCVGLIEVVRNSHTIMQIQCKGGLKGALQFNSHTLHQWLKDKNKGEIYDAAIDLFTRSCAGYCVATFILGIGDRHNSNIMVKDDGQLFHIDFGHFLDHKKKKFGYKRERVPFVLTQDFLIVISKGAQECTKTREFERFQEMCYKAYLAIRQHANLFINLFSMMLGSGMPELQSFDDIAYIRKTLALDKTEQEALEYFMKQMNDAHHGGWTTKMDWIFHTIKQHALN
- measurement-protocol: KINOMEscan competition binding
test-readout: Kd (µM)

>>> df
                      smiles_representation  meas_value
0  COc1cc2ncnc(Oc3cccc(NC(=O)Nc4cc(C(C)(C)C(F)(F)F)on4)c3)c2cc1OC          29

###

- test-system: MAPK15 (human) (UniProt Q8TD08)
- Sequence (Q8TD08 whole entry, looked up): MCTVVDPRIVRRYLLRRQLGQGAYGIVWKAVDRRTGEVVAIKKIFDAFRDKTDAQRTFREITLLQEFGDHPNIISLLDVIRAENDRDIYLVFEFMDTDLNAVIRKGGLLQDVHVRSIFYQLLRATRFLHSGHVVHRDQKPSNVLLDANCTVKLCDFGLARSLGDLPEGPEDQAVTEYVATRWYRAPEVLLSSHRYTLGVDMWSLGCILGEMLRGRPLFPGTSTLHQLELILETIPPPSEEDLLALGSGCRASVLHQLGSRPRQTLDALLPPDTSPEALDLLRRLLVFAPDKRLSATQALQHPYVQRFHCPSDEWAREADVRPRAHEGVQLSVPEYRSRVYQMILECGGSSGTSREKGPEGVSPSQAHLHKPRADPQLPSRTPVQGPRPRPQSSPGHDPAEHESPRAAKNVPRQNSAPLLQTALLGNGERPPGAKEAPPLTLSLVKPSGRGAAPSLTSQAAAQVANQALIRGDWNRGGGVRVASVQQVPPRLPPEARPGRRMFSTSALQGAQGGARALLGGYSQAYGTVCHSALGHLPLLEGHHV
pKd: −log10 of the molar value.
test-readout: pKd

In [3]: df
Out[3]:
                      smiles_representation                      test_system  meas_value
0  COc1cc2ncnc(Oc3cccc(NC(=O)Nc4cc(C(C)(C)C(F)(F)F)on4)c3)c2cc1OC  MAPK15 (human) (UniProt Q8TD08)        7.03

###

- test-system: EPHB6 (human) (UniProt O15197)
- Sequence (O15197 whole entry, looked up): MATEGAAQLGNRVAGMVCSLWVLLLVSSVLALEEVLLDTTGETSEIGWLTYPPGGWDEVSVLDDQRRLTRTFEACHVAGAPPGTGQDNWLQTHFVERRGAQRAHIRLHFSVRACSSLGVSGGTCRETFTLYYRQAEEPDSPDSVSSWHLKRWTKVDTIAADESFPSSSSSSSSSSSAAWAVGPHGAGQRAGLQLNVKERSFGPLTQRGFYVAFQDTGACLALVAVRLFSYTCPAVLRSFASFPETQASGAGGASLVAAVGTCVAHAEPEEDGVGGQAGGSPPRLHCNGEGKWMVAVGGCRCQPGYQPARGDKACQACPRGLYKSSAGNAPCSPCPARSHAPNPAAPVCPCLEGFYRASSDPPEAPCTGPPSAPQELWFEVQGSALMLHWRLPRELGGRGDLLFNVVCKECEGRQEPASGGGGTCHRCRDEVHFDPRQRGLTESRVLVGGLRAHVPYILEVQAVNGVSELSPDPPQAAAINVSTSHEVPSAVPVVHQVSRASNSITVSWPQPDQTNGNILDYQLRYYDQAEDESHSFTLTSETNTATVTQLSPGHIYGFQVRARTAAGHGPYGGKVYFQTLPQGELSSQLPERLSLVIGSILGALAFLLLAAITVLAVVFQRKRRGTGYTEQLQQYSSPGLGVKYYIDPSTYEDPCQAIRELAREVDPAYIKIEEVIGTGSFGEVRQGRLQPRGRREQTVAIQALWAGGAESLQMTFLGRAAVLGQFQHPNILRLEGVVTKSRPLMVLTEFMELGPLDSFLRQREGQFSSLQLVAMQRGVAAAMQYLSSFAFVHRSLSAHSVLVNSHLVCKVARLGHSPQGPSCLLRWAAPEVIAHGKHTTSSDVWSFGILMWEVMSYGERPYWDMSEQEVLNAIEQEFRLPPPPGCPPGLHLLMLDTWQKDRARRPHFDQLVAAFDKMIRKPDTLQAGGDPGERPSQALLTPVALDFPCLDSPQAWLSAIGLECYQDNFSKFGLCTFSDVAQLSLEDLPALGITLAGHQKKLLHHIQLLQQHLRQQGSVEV
pKd: −log10 of the molar value.
test-readout: pKd

                      smiles_representation  test_readout  meas_value
0  COc1cc2ncnc(Oc3cccc(NC(=O)Nc4cc(C(C)(C)C(F)(F)F)on4)c3)c2cc1OC           pKd        7.04
